Measured Ki by item
# target.or.system: human 5-HT2A receptor (Homo sapiens (Human))
# Sequence (P28223 whole entry): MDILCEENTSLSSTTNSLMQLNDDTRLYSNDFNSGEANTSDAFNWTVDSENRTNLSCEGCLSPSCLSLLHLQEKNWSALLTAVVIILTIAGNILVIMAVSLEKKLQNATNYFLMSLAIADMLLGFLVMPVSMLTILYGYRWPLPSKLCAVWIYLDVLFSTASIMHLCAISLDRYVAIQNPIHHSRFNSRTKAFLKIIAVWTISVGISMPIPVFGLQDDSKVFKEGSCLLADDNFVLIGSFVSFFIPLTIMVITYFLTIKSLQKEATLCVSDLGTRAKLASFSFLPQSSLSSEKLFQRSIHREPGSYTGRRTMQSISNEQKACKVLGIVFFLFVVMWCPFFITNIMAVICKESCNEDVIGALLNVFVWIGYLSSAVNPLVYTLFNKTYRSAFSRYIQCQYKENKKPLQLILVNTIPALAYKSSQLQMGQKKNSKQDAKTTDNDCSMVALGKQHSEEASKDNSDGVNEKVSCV
# experiment.description: Radioligand binding assay, [3H]-ketanserin, human 5-HT2A receptor
# experimental.parameters: membranes of HEK293 EBNA cells expressing human 5-HT2A; 1.1 nM [3H]-ketanserin
Note to self: number, then unit, no commentary.

Solved cases below.
{"molecule": "O=C(N[C@H]1CC[C@H](CCN2CCN(c3nccc4c3CCO4)CC2)CC1)C1(O)CC1", "Ki": "0.00592 µM"}
{"molecule": "CC(=O)N[C@H]1CC[C@H](CCN2CCN(c3nc(C)cc4c3CCO4)CC2)CC1", "Ki": "0.215 µM"}
{"molecule": "C[C@]1(O)CC[C@@H](C(=O)N[C@H]2CC[C@H](CCN3CCN(c4nccc5c4CCO5)CC3)CC2)CC1", "Ki": "0.00614 µM"}
{"molecule": "O=C(CO)N[C@H]1CC[C@H](CCN2CCN(c3nccc4sccc34)CC2)CC1", "Ki": "0.0014 µM"}

// query Ki value for entry C[C@]1(O)CC[C@H](C(=O)N[C@H]2CC[C@H](CCN3CCN(c4nccc5c4CCO5)CC3)CC2)CC1
0.0126 µM

// query Ki value for entry O=C(N[C@H]1CC[C@H](CCN2CCN(c3nccc4c3CCO4)CC2)CC1)C1CCCO1 (mixture of isomers)
0.0063 µM

// query Ki value for entry CO[C@H]1CC[C@H](CC(=O)N[C@H]2CC[C@H](CCN3CCN(c4nccc5sccc45)CC3)CC2)C1
0.0043 µM

// query Ki value for entry Cc1cnc(N2CCN(CC[C@H]3CC[C@H](NC(=O)CC4CCOCC4)CC3)CC2)c2ccoc12
0.0117 µM

// query Ki value for entry CC(=O)N[C@H]1CC[C@H](CCN2CCN(c3nccc4c3CCO4)CC2)CC1
0.0229 µM

// query Ki value for entry O=C(CC1CCOCC1)N[C@H]1CC[C@H](CCN2CCN(c3nccc4sccc34)CC2)CC1
0.003 µM

// query Ki value for entry Cc1cnc(N2CCN(CC[C@H]3CC[C@H](NC(=O)C4CCOCC4)CC3)CC2)c2c1OCC2
0.0197 µM

// query Ki value for entry O=C(N[C@H]1CC[C@H](CCN2CCN(c3nccc4c3CCO4)CC2)CC1)c1ccccc1
0.00763 µM

// query Ki value for entry CN(C)C(=O)CCC(=O)N[C@H]1CC[C@H](CCN2CCN(c3nccc4c3CCO4)CC2)CC1
0.0239 µM

// query Ki value for entry CC(C)CC(=O)N[C@H]1CC[C@H](CCN2CCN(c3nccc4c3CCO4)CC2)CC1
0.0157 µM

// query Ki value for entry O=C(CC1COC1)N[C@H]1CC[C@H](CCN2CCN(c3nccc4c3CCO4)CC2)CC1
0.011 µM

// query Ki value for entry O=C(N[C@H]1CC[C@H](CCN2CCN(c3nccc4c3CCO4)CC2)CC1)c1ccnc2ccccc12
0.00362 µM

// query Ki value for entry O=C(CC1CCOCC1)N[C@H]1CC[C@H](CCN2CCN(c3nccc4c3CCO4)CC2)CC1
0.0201 µM

// query Ki value for entry O=C(N[C@H]1CC[C@H](CCN2CCN(c3nccc4c3CCO4)CC2)CC1)c1ccc(N2CCS(=O)(=O)CC2)cc1
0.0166 µM

// query Ki value for entry O=C(N[C@H]1CC[C@H](CCN2CCN(c3nccc4c3CCO4)CC2)CC1)c1ccc2c(c1)OCO2
0.0176 µM

// query Ki value for entry CS(=O)(=O)N[C@H]1CC[C@H](CCN2CCN(c3nccc4occc34)CC2)CC1
0.0068 µM

// query Ki value for entry O=C(N[C@H]1CC[C@H](CCN2CCN(c3nccc4c3CCO4)CC2)CC1)c1ccc(-n2cccn2)cc1
0.0359 µM

Cited source for all entries: patent US8586579B2
